MIC: recorded values
System: Staphylococcus aureus
Assay: Antibacterial activity against methicillin/ceftriaxone/meropenem-resistant Staphylococcus aureus NRS10198 clinical isolate assessed as bacterial growth inhibition incubated for 16 to 18 hrs by CLSI based antibiotic susceptibility testing method
Assay type: functional
Conditions: time 16-18 hrs
Be sure to follow the number with its unit.

According to the records, this molecule O=C1c2cccc3cccc(c23)C(=O)N1CCN1CCN(C(=S)NC2CCCCC2)CC1 displays MIC of 0.25 µg/mL

According to the records, this molecule O=C1c2cccc3cccc(c23)C(=O)N1CCN1CCN(C(=S)Nc2ccccc2)CC1 displays MIC of 2 µg/mL

According to the records, this molecule O=C(CN1C(=O)c2cccc3cccc(c23)C1=O)N1CCC(NC(=S)NC2CCCCCC2)CC1 displays MIC of 0.25 µg/mL

According to the records, this molecule O=C(CN1C(=O)c2cccc3cccc(c23)C1=O)N1CCC(NC(=S)NC2CCCCC2)CC1 displays MIC of 0.125 µg/mL

According to the records, this molecule O=C(CN1C(=O)c2cccc3cccc(c23)C1=O)NC1CCN(C(=S)NC2CCCCCC2)CC1 displays MIC of 1 µg/mL

According to the records, this molecule O=C1c2cccc3cccc(c23)C(=O)N1CCN1CCN(C(=S)NC2CCCC2)CC1 displays MIC of 0.125 µg/mL

According to the records, this molecule O=C(CCN1C(=O)c2cccc3cccc(c23)C1=O)N1CCN(C(=S)NC2CCCCC2)CC1 displays MIC of 1 µg/mL
